Biological target: T1, RFS1 (cShu subunit);RIP1 (cShu subunit);SWS1 (cShu subunit) (Caenorhabditis elegans;Caenorhabditis …, UniProt P34348;Q21621;Q8MYM5 1-245;1-209;1-191, ||)
T1 sequence 1: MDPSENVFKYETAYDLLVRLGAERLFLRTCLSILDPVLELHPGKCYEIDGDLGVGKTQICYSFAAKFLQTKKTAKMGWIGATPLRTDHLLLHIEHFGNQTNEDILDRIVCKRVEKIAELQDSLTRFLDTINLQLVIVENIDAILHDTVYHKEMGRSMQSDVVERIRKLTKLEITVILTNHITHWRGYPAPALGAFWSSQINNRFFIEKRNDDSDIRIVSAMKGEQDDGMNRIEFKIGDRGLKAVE
T1 sequence 2: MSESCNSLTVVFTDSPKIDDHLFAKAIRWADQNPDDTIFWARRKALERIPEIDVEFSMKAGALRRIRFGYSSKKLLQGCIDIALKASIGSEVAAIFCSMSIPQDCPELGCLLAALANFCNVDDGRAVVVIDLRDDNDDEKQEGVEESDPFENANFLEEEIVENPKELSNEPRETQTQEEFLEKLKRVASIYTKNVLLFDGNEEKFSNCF
T1 sequence 3: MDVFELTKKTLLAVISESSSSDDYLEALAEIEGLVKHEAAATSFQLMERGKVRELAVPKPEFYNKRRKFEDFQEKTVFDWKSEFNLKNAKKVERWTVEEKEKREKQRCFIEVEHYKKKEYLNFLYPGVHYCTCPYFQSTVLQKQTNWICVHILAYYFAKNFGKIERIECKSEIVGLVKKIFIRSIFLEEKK
Test: fluorescence polarization
PROPERTY: binding result

ds21 (dsDNA) DNA 1: ACTTACAGCACAGCGGTTTTT DNA 2: AAAAACCGCTGTGCTGTAAGT
no binding
ds26 (dsDNA) DNA 1: ACTGCCCTTACAGCACAGCGGTTTTT DNA 2: AAAAACCGCTGTGCTGTAAGGGCAGT
no binding
Fork (5 nt) (mixed) DNA 1: ACTGCCCTTACAGCACAGCGGTTTTT DNA 2: TTTTTCCGCTGTGCTGTAAGGGCAGT
no binding

Attribution: paper doi:10.1101/2025.11.17.685403
